target: NDM-1 (Klebsiella pneumoniae); construct: Li's Laboratory, Sichuan University (collaborator, a gift and not a purchase); assay: NDM-1 inhibition assay (FC5 fluorogenic substrate); assay type: biochemical; conditions: @ 10 μM; mean ± SD (n = 3)
Sequence (C7C422 29-270, looked up, species assumed): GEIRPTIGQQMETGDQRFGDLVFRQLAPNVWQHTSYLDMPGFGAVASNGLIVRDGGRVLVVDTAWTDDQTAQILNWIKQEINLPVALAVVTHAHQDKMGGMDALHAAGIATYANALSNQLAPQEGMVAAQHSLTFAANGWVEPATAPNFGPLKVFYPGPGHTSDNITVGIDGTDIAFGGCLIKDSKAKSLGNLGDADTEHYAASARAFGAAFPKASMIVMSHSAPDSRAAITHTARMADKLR
Measured endpoint: inhibition at 10 µM (%)

In the examples that follow, each entry is paired with its recorded inhibition at 10 µM.
Input: Reported inhibition at 10 µM, molecule "O=C(O)c1ccccc1-c1nnc2n1C(=O)CS2" : ____
Output: 10

Input: Reported inhibition at 10 µM, molecule c1coc(-c2nnc3n2CCCS3)c1 [10a] : ____
Output: 16

Input: Reported inhibition at 10 µM, molecule "Fc1ccc(-c2nnc3n2CCCS3)cc1" : ____
Output: 23

Input: Reported inhibition at 10 µM, molecule "Brc1ccc(-c2nnc3n2CCCS3)cc1" : ____
Output: 10

Input: Reported inhibition at 10 µM, molecule "Cc1c(-c2nnc3n2CCCS3)cccc1[N+](=O)[O-]" : ____
Output: 22

[A] Cc1ccccc1-c1nnc2n1CCCS2
[B] FC(F)(F)c1ccc(-c2nnc3n2CCCS3)cc1
Input: Input pair: A , B . Output: entry with lower inhibition at 10 µM. Could you answer with the label of the item you picked?
Output: B

---

target: IMP-1 (Serratia marcescens, UniProt P52699); construct: Li's Laboratory, Sichuan University (collaborator, a gift and not a purchase); experiment: IMP-1 inhibition assay (FC5 fluorogenic substrate); type: biochemical; details: @ 10 μM; mean ± SD (n = 3)
Sequence (P52699 19-246 limits assumed): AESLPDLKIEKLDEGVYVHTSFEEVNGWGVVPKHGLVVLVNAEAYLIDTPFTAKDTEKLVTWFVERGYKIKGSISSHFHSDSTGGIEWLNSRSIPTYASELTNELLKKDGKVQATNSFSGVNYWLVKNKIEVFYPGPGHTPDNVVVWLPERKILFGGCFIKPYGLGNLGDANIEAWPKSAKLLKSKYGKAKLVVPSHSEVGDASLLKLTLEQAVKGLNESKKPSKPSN
Measured endpoint: inhibition at 10 µM (%)

Input: Reported inhibition at 10 µM, compound "FC(F)(F)c1cccc(-c2nnc3n2CCCS3)c1" : ____
Output: 11

[P] Cc1c(-c2nnc3n2CCCS3)cccc1[N+](=O)[O-]
[Q] Brc1ccc(-c2nnc3n2CCS3)cc1
Input: Which record would sort first by descending inhibition at 10 µM, P or Q ? Could you answer with the label of the item you picked?
Output: Q
(Q: 9%, P: -5%)

---

target: VIM-2 (Escherichia coli); construct: Li's Laboratory, Sichuan University (collaborator, a gift and not a purchase); assay: VIM-2 inhibition assay (FC5 fluorogenic substrate); type: biochemical; settings: @ 100 μM; mean ± SD (n = 3)
Measured endpoint: inhibition at 100 µM (%)

In the examples that follow, each entry is paired with its recorded inhibition at 100 µM.
Input: inhibition at 100 µM of "Fc1ccc(-c2nnc3n2CCCS3)cc1" on VIM-2 (Escherichia coli)?
Output: 34

Input: inhibition at 100 µM of "Brc1ccc(-c2nnc3n2CCS3)cc1" on VIM-2 (Escherichia coli)?
Output: 80

[1] Ic1ccc(-c2nnc3n2CCCS3)cc1
[2] c1csc(-c2nnc3n2CCCS3)c1 [10b]
[3] c1ccc(Cc2nnc3n2CCCS3)cc1
Input: Task field, ranking: reported inhibition at 100 µM, descending order. The response must list the labels following the requested ordering.
Output: 1, 2, 3
(1: 78%, 2: 30%, 3: 21%)

---

Biological target: IMP-1 (Serratia marcescens, UniProt P52699)
Construct: Li's Laboratory, Sichuan University (collaborator, a gift and not a purchase)
Assay: IMP-1 inhibition assay (FC5 fluorogenic substrate)
Assay type: biochemical
Conditions: @ 100 μM; mean ± SD (n = 3)
Description: Then, we tested all the target compounds against other B1 MBL enzymes, including NDM-1, IMP-1, VIM-1, and VIM-5 (Table 1); all the assay conditions (including enzyme/substrate concentrations) are the same as that previously used. […]. […]. All the target compounds were freshly prepared in 100 mM DMSO stock solutions. […] The IC50 values for the compounds (with 10 different concentrations in threefold dilution) were further determined. […]
Measured endpoint: inhibition at 100 µM (%)

In the examples that follow, each entry is paired with its recorded inhibition at 100 µM.
Input: inhibition at 100 µM of Oc1ccccc1-c1nnc2n1CCCS2 [compound 6] on IMP-1 (Serratia marcescens, UniProt P52699)?
Output: 30

Input: inhibition at 100 µM of Brc1ccc(-c2nnc3n2CCS3)cc1 [5s] on IMP-1 (Serratia marcescens, UniProt P52699)?
Output: 4

Input: inhibition at 100 µM of Fc1ccc(-c2nnc3n2CCCS3)cc1 [5j] on IMP-1 (Serratia marcescens, UniProt P52699)?
Output: 8

Input: inhibition at 100 µM of O=C(O)c1ccccc1-c1nnc2n1CCCS2 [compound 14] on IMP-1 (Serratia marcescens, UniProt P52699)?
Output: 15

Input: inhibition at 100 µM of FC(F)(F)c1cccc(-c2nnc3n2CCCS3)c1 [5i] on IMP-1 (Serratia marcescens, UniProt P52699)?
Output: 12

[I] O=C(O)c1ccccc1-c1nnc2n1C(=O)CS2 [compound 15]
[II] Cc1ccccc1-c1nnc2n1CCCS2 [5b]
[III] c1ccc(-c2nnc3n2CCCS3)nc1 [5q]
[IV] c1coc(-c2nnc3n2CCCS3)c1 [10a]
Input: List the 4 entries from lowest inhibition at 100 µM to highest inhibition at 100 µM value. The response must list the labels following the requested ordering.
Output: IV, III, I, II
(IV: 5%, III: 9%, I: 13%, II: 25%)
